The entries below come with measured MEC values attached.
Tested on: A. fumigatus ATCC 13073
testDetails: MEC assay (Example 31)
Assay type: cell-based
testSettings: RPMI pH 7.0, 35° C., 24-48 hr
assayReadout: MEC (µg/mL)

>>> reading("CC[C@H](C)C[C@H](C)CCCCCCCCC(=O)N[C@H]1C[C@@H](O)[C@@H](NCCN)NC(=O)[C@@H]2[C@@H](O)CCN2C(=O)[C@H]([C@H](O)CCNC(=O)CCNC(=O)[C@H](Cc2ccccc2)NC(=O)[C@H](CC(C)C)NC(=O)[C@H](CCSC)NC(C)=O)NC(=O)[C@H]([C@H](O)[C@@H](O)c2ccc(O)cc2)NC(=O)[C@@H]2C[C@@H](O)CN2C(=O)[C@H]([C@@H](C)O)NC1=O")
1
>>> reading("CC[C@H](C)C[C@H](C)CCCCCCCCC(=O)N[C@H]1C[C@@H](O)[C@@H](NCCNC(=O)CCNC(=O)[C@H](Cc2ccccc2)NC(=O)[C@H](CC(C)C)NC(=O)[C@H](CCSC)NC(C)=O)NC(=O)[C@@H]2[C@@H](O)CCN2C(=O)[C@H]([C@H](O)CCN)NC(=O)[C@H]([C@H](O)[C@@H](O)c2ccc(O)cc2)NC(=O)[C@@H]2C[C@@H](O)CN2C(=O)[C@H]([C@@H](C)O)NC1=O")
1

* * *

System: C. albicans ATCC 90028
testDetails: microbe, parasite or virus in culture
Type: cell-based
testSettings: ATCC 90028, pH 7
assayReadout: MIC (µg/mL)

>>> reading("CC[C@H](C)C[C@H](C)CCCCCCCCC(=O)N[C@H]1C[C@@H](O)[C@@H](NCCN)NC(=O)[C@@H]2[C@@H](O)CCN2C(=O)[C@H]([C@H](O)CCNC(=O)[C@H](CCSC)NC=O)NC(=O)[C@H]([C@H](O)[C@@H](O)c2ccc(O)cc2)NC(=O)[C@@H]2C[C@@H](O)CN2C(=O)[C@H]([C@@H](C)O)NC1=O [Compound 26]")
0.25
>>> reading("CC[C@H](C)C[C@H](C)CCCCCCCCC(=O)N[C@H]1C[C@@H](O)[C@@H](NCCN)NC(=O)[C@@H]2[C@@H](O)CCN2C(=O)[C@H]([C@H](O)CCNC(=O)CCC(=O)NCCOCCOCCNC(=O)[C@H](Cc2ccccc2)NC(=O)[C@H](CC(C)C)NC(=O)[C@H](CCSC)NC=O)NC(=O)[C@H]([C@H](O)[C@@H](O)c2ccc(O)cc2)NC(=O)[C@@H]2C[C@@H](O)CN2C(=O)[C@H]([C@@H](C)O)NC1=O [Compound 16]")
2
>>> reading("CC[C@H](C)C[C@H](C)CCCCCCCCC(=O)N[C@H]1C[C@@H](O)[C@@H](NCCN)NC(=O)[C@@H]2[C@@H](O)CCN2C(=O)[C@H]([C@H](O)CCNC(=O)[C@@H](N)CCCCNC(=O)[C@H](Cc2ccccc2)NC(=O)[C@H](CC(C)C)NC(=O)[C@H](CCSC)NC=O)NC(=O)[C@H]([C@H](O)[C@@H](O)c2ccc(O)cc2)NC(=O)[C@@H]2C[C@@H](O)CN2C(=O)[C@H]([C@@H](C)O)NC1=O [Compound 15]")
1

* * *

Tested on: A. fumigatus MYA-3626
testDetails: MEC assay (Example 31)
Format: cell-based
testSettings: RPMI pH 7.0, 35° C., 24-48 hr
assayReadout: MEC (µg/mL)

>>> reading("CC[C@H](C)C[C@H](C)CCCCCCCCC(=O)N[C@H]1C[C@@H](O)[C@@H](NCCN)NC(=O)[C@@H]2[C@@H](O)CCN2C(=O)[C@H]([C@H](O)CCNC(=O)[C@@H](N)CCCCNC(=O)[C@H](Cc2ccccc2)NC(=O)[C@H](CC(C)C)NC(=O)[C@H](CCSC)NC=O)NC(=O)[C@H]([C@H](O)[C@@H](O)c2ccc(O)cc2)NC(=O)[C@@H]2C[C@@H](O)CN2C(=O)[C@H]([C@@H](C)O)NC1=O")
0.12
>>> reading("CC[C@H](C)C[C@H](C)CCCCCCCCC(=O)N[C@H]1C[C@@H](O)[C@@H](NCCN)NC(=O)[C@@H]2[C@@H](O)CCN2C(=O)[C@H]([C@H](O)CCNC(=O)CCNC(=O)[C@H](Cc2ccccc2)NC(=O)[C@H](CC(C)C)NC(=O)[C@H](CCSC)NC=O)NC(=O)[C@H]([C@H](O)[C@@H](O)c2ccc(O)cc2)NC(=O)[C@@H]2C[C@@H](O)CN2C(=O)[C@H]([C@@H](C)O)NC1=O")
1
>>> reading("CC[C@H](C)C[C@H](C)CCCCCCCCC(=O)N[C@H]1C[C@@H](O)[C@@H](NCCN)NC(=O)[C@@H]2[C@@H](O)CCN2C(=O)[C@H]([C@H](O)CCNC(=O)[C@H](CCSC)NC(=O)[C@H](CC(C)C)NC(=O)[C@H](CCSC)NC=O)NC(=O)[C@H]([C@H](O)[C@@H](O)c2ccc(O)cc2)NC(=O)[C@@H]2C[C@@H](O)CN2C(=O)[C@H]([C@@H](C)O)NC1=O")
0.25
>>> reading("CC[C@H](C)C[C@H](C)CCCCCCCCC(=O)N[C@H]1C[C@@H](O)[C@@H](NCCNC(=O)CCNC(=O)[C@H](Cc2ccccc2)NC(=O)[C@H](CC(C)C)NC(=O)[C@H](CCSC)NC(C)=O)NC(=O)[C@@H]2[C@@H](O)CCN2C(=O)[C@H]([C@H](O)CCN)NC(=O)[C@H]([C@H](O)[C@@H](O)c2ccc(O)cc2)NC(=O)[C@@H]2C[C@@H](O)CN2C(=O)[C@H]([C@@H](C)O)NC1=O")
1

* * *

System: Neutrophils purified from human peripheral blood
testDetails: Human Neutrophil Transwell Migration Assay
Type: cell-based
testSettings: conc 1 μg/mL; 37° C., 45 minutes; % of the maximum migration possible
assayReadout: % Neutrophil Migration (%)

>>> reading("CC[C@H](C)C[C@H](C)CCCCCCCCC(=O)N[C@H]1C[C@@H](O)[C@@H](NCCN)NC(=O)[C@@H]2[C@@H](O)CCN2C(=O)[C@H]([C@H](O)CCNC(=O)[C@H](CCSC)NC=O)NC(=O)[C@H]([C@H](O)[C@@H](O)c2ccc(O)cc2)NC(=O)[C@@H]2C[C@@H](O)CN2C(=O)[C@H]([C@@H](C)O)NC1=O [Compound 26]")
"−4.1"
>>> reading("CC[C@H](C)C[C@H](C)CCCCCCCCC(=O)N[C@H]1C[C@@H](O)[C@@H](NCCNC(=O)C(Cc2ccccc2)NC(=O)C(CC(C)C)NC(=O)C(CCSC)NC(=O)Nc2ccc(Cl)cc2)NC(=O)[C@@H]2[C@@H](O)CCN2C(=O)[C@H]([C@H](O)CCN)NC(=O)[C@H]([C@H](O)[C@@H](O)c2ccc(O)cc2)NC(=O)[C@@H]2C[C@@H](O)CN2C(=O)[C@H]([C@@H](C)O)NC1=O (single isomer, unassigned) [Compound 13b]")
"−8.5"
>>> reading("CC[C@H](C)C[C@H](C)CCCCCCCCC(=O)N[C@H]1C[C@@H](O)[C@@H](NCCN)NC(=O)[C@@H]2[C@@H](O)CCN2C(=O)[C@H]([C@H](O)CCNC(=O)[C@H](CO)NC(=O)[C@H](CC(C)C)NC(=O)[C@H](CCSC)NC=O)NC(=O)[C@H]([C@H](O)[C@@H](O)c2ccc(O)cc2)NC(=O)[C@@H]2C[C@@H](O)CN2C(=O)[C@H]([C@@H](C)O)NC1=O [Compound 29]")
11.0
>>> reading("CC[C@H](C)C[C@H](C)CCCCCCCCC(=O)N[C@H]1C[C@@H](O)[C@@H](NCCN)NC(=O)[C@@H]2[C@@H](O)CCN2C(=O)[C@H]([C@H](O)CCNC(=O)[C@@H](N)CCCCNC(=O)[C@H](Cc2ccccc2)NC(=O)[C@H](CC(C)C)NC(=O)[C@H](CCSC)NC=O)NC(=O)[C@H]([C@H](O)[C@@H](O)c2ccc(O)cc2)NC(=O)[C@@H]2C[C@@H](O)CN2C(=O)[C@H]([C@@H](C)O)NC1=O [Compound 15]")
"−6.3"
>>> reading("CC[C@H](C)C[C@H](C)CCCCCCCCC(=O)N[C@H]1C[C@@H](O)[C@@H](NCCN)NC(=O)[C@@H]2[C@@H](O)CCN2C(=O)[C@H]([C@H](O)CCNC(=O)[C@H](CCSC)NC(=O)[C@H](CC(C)C)NC(=O)[C@H](CCSC)NC=O)NC(=O)[C@H]([C@H](O)[C@@H](O)c2ccc(O)cc2)NC(=O)[C@@H]2C[C@@H](O)CN2C(=O)[C@H]([C@@H](C)O)NC1=O [Compound 28]")
"−0.2"
